The measured values listed here are drawn from patent US20210382058A1.

- System: NCI-60 cancer cell lines
- assay_summary: NCI-60 cancer cell line drug screen (GI50, MGM)
- Assay type: cell-based, human
- test_settings: Homo sapiens, K562, Leukemia, K-562; read-out: Antiproliferative Activities [GI50 (μM)]
Please provide measured GI50 for the entries that follow.
Answers are plain numbers, in µM.

**Query** Check NCI-60 cancer cell lines data and give GI50 for `COc1cc2c3c(n(CCCn4ccnc4)c(=O)c2cc1OC)-c1cc2c(cc1C3=O)OCO2` .
**Result** 1.49

Below are 6 molecules. Give each one its GI50.
1. COc1cc2c3c(n(CCCN4CCN(C)CC4)c(=O)c2cc1OC)-c1cc2c(cc1C3=O)OCO2
2. COc1cnc2c(c1)C(=O)c1c-2n(CCCN2CCCC2)c(=O)c2cc([N+](=O)[O-])ccc12
3. COc1cc2c3c(n(CCCN4CCC(N)CC4)c(=O)c2cc1OC)-c1cc2c(cc1C3=O)OCO2
4. O=C1c2ccccc2-c2c1c1ccccc1c(=O)n2CCCNCCO
5. COc1ccc2c(c1)C(=O)c1c-2n(CCCN2CCOCC2)c(=O)c2ccccc12
6. COc1cc2c(cc1O)-c1c(c3ccc([N+](=O)[O-])cc3c(=O)n1CCCN)C2=O

**Result**
[6.49, 0.02, 1.59, 0.18, 5.13, 0.77]

Parameters: items (list). Returns: GI50 for each item.
1. COc1cnc2c(c1)C(=O)c1c-2n(CCCNCCN2CCOCC2)c(=O)c2cc([N+](=O)[O-])ccc12
2. COc1cc2c(cc1O)-c1c(c3ccc([N+](=O)[O-])cc3c(=O)n1CCCN1CCOCC1)C2=O
3. COc1cc2c3c(n(CCCNCCN)c(=O)c2cc1OC)-c1cc2c(cc1C3=O)OCO2

**Result**
0.23
0.09
0.28
